# PROTOCOL SUMMARY: Counterscreen qHTS for Inhibitors of Tau Fibril Formation, Fluorescence Polarization; also: nearly all actives have a fitted effect of over 55% in size
# CONDITION DETAILS: tau K18 P301L (four-repeat tau fragment) Alexa594 fluorescence, heparin fibrillization; series mostly up to 57.7 µM
The campaign covered roughly 280,000 compounds. About 2,600 (0.93%) were called active. Inconclusive results (about 8%) are left out. Calls follow the shape of the dose curve; as a rule, active = well fitted curve in the direction sought with a large enough effect; inconclusive = small, poorly fitted or top-dose-only effect; inactive = flat fitted curve, though single readings scatter. Shown is part of a subset that was picked to be rich in actives.
Outcome (select one): 1.0 = active, 0.0 = inactive

Cc1nc2ccn(Cc3cccnc3)c(=O)c2cc1C(=O)N1CCN(c2ccccc2F)CC1	0.0
O=C(N/N=C/c1ccc([N+](=O)[O-])o1)c1cccc(S(=O)(=O)N2CCOCC2)c1	0.0
CCCn1c2ccccc2c2cnn(CC(=O)N(CC)c3cc(C)ccc3C)c(=O)c21	0.0
COc1ccc(S(=O)(=O)c2cn(C)c3cc(N4CCCCC4)c(F)cc3c2=O)cc1	0.0

What did this assay record as the result for `CCCNC(=O)CCn1nc(-c2ccccc2)c2ccccc2c1=O` ? 0.0

What did this assay record as the result for `O=C(Nc1ccc(-c2csc(Nc3cccc(C(F)(F)F)c3)n2)cc1)c1cccc(C(F)(F)F)c1` ? 1.0

What did this assay record as the result for `Cc1ccc(Nc2c3c(nc4ccccc24)CCC3)cc1` ? 0.0

From: PubChem BioAssay AID1463
